- Test system: TE13 cells of esophageal squamous cell carcinoma
- assay-notes: transwell migration test
- Format: cell-based, human
- condition-notes: dose 1 μM, 24 h
No end group written: not given here.
measurement-type: migration inhibition rate (%)
Express your answer in %, writing the number without its unit.

# get_value(readout= migration inhibition rate, system= TE13 cells of esophageal squamous cell carcinoma) for MERAGVPGFSPRRSSVEAKMQSTSCSVRKSSTVTAWPAVVLLLSWGQRRGE-OH [HMMW-VIII] 23.73

Field: next substance
# get_value(readout= migration inhibition rate, system= TE13 cells of esophageal squamous cell carcinoma) for MGSTYNKRHSPRRSSVEAKMQSTSCSVRKSSTVTAWPAVVLLLSWGQRRGG-OH [HMMW-III] 22.76
